- experimental-system: T1, 4H570-bH
- T1 chain: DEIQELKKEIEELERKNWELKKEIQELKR
- assay-protocol: two-hybrid library CCNG1;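 also: natural log of median RNA to DNA barcode read ratio; higher means stronger binding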
result-type: interaction score

Completed entries (count: 8):
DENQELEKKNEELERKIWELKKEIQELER [4H1449-bH]    -0.108
DENQELEKKIEELKREIWELKKKNQELER [4H1359-bH]    -1.09
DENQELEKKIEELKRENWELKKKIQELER [4H1373-bH]    0.082
DKNQELEKKIEELKRENWELEKKIQELKR [4H3414-bH]    0.846
DKNQELKKEIEELERENWELKKKIQELER [4H3613-bH]    -0.821
DKNQELKKEIEELERKNWELEKKIQELKR [4H3638-bH]    -0.4
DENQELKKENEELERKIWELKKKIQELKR [4H1710-bH]    -0.481
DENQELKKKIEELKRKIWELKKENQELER [4H1899-bH]    -1.69

I: DKIQQLEQKNQELKQENQELEWKIQELKQ [4H2518-bN]
II: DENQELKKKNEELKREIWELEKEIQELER [4H1985-bH]
III: DENQELEKKIEELERKNWELKKEIQELKR [4H1338-bH]
IV: DENQELKKKIEELEREIWELKKENQELKR [4H1804-bH]
Order the records by interaction score, with each subsequent value no larger than the one before. # format: label list in the order the request specifies IV, III, II, I
